Hey, just so you know, these numbers are from patent US8410132B2.

# reported pEC50; entries follow
TARGET_UNDER_TEST: ΔF508-CFTR (Homo sapiens, UniProt P13569, DEL508-508)
Construct: NIH3T3 cells stably expressing ΔF508-CFTR (whole-cell recordings)
Sequence (P13569 with tags, fused parts or gaps DEL508-508): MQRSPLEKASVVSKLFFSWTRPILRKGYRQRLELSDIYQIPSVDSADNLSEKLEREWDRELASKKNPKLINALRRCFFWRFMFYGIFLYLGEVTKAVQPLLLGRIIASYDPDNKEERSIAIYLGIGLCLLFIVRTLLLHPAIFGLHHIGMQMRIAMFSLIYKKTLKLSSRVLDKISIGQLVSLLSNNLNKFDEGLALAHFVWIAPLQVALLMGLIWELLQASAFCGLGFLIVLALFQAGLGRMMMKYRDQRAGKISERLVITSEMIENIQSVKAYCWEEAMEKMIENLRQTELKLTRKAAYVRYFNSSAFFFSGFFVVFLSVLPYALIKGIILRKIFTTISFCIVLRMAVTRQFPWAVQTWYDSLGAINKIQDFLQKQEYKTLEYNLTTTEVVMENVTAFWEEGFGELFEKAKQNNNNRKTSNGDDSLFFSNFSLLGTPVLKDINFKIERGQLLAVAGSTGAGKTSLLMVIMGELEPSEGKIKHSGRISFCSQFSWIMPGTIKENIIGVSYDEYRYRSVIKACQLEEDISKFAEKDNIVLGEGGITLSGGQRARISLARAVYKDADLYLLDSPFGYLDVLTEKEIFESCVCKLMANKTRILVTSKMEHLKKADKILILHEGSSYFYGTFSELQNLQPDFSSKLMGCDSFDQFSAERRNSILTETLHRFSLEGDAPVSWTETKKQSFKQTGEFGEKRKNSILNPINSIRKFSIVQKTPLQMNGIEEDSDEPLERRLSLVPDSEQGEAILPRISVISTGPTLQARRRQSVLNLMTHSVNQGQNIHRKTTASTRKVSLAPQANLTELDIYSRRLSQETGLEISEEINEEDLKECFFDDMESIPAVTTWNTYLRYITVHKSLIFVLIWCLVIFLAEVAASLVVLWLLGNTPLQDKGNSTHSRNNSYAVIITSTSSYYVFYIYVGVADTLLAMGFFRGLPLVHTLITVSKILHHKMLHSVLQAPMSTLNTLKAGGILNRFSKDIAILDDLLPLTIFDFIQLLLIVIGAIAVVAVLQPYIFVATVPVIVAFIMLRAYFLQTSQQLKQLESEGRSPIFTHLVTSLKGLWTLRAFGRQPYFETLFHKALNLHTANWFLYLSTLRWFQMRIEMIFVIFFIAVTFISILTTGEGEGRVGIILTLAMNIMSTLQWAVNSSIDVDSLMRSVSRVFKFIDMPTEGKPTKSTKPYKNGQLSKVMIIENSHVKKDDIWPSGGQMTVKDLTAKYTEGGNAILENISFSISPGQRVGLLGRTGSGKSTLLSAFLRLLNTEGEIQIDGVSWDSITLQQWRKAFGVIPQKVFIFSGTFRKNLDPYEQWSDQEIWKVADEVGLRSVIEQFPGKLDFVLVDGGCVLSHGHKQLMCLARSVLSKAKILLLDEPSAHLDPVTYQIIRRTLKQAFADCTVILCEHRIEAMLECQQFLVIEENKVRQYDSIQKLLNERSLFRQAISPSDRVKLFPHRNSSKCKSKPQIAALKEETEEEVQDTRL
METHOD_SUMMARY: Assay for detecting and measuring ΔF508-CFTR potentiation properties of compounds (membrane potential optical method / Ussing chamber)
ASSAY_SETUP: ΔF508-CFTR potentiation
pEC50: −log10 of the molar value.

Known pEC50 results, listed for orientation:
{"columns": ["COMPOUND", "TARGET_UNDER_TEST", "ENDPOINT_VALUE"],
 "data": [
  ["CC(C)(C)c1cc(C(C)(C)C)c(NC(=O)c2c[nH]c3cnccc3c2=O)cc1O [Cmpd 9]", "ΔF508-CFTR (Homo sapiens, UniProt P13569, DEL508-508)", "> 5.00"],
  ["CC(C)c1ccccc1NC(=O)c1c[nH]c2ccncc2c1=O [Cmpd 4]", "ΔF508-CFTR (Homo sapiens, UniProt P13569, DEL508-508)", "> 5.00"],
  ["O=C(NCC1(c2ccc(OC(F)(F)F)cc2)CCCC1)c1c[nH]c2ccncc2c1=O [Cmpd 8]", "ΔF508-CFTR (Homo sapiens, UniProt P13569, DEL508-508)", "> 5.00"],
  ["C[C@H]1CCCN1c1ccc(NC(=O)c2c[nH]c3cnccc3c2=O)c(C(F)(F)F)c1 [Cmpd 12]", "ΔF508-CFTR (Homo sapiens, UniProt P13569, DEL508-508)", "> 5.00"],
  ["O=C(Nc1ccc(N2CCCC2)cc1C(F)(F)F)c1c[nH]c2cnccc2c1=O [Cmpd 11]", "ΔF508-CFTR (Homo sapiens, UniProt P13569, DEL508-508)", "> 5.00"]
]}

Q. // lookup pEC50 for CC(C)(C)c1cc2cc[nH]c2cc1NC(=O)c1c[nH]c2cnccc2c1=O [Cmpd 10]
A. > 5.00

Q. Dear colleague, I am looking for the recorded pEC50 of the following compound: O=C(Nc1ccc2cc[nH]c2c1)c1c[nH]c2ccncc2c1=O [Cmpd 6]
A. > 5.00

Q. Given CCCc1ccccc1NC(=O)c1c[nH]c2ccncc2c1=O [Cmpd 3] , state its recorded pEC50.
A. > 5.00

Q. For the compound O=C(Nc1ccccc1-c1ccccc1)c1c[nH]c2ccncc2c1=O [Cmpd 5] , what pEC50 is on record?
A. > 5.00
